Tested on: c-Abl (mouse)
assay.info: phosphorylation enrichment, bacterial display (enrichment ratio); higher = better substrate or ligand; peptides without Tyr show the background;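 also: 11-residue human phosphosite peptides and single-mutation variants displayed on the E. coli surface, counted by deep sequencing, each peptide's frequency after selection divided by its frequency in the unselected input library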;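 also: frequency after pTyr selection over input frequency; kinase dosed for 20-30% of maximal phosphorylation in three min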
Assign phosphorylation enrichment to each entry below.
Answer using only a numeral; do not append any unit.

In: Given DEEFEYMNRRR [ERBB3_Y1199_YF] , respond with its phosphorylation enrichment.
Out: 0.688

In: Given RFVTRHIFNRE [HLA-DQB1_Y62_Y62H_YF] , respond with its phosphorylation enrichment.
Out: 0.719

In: Given GRLPEYNTPIA [CCDC151_Y542_R545P] , respond with its phosphorylation enrichment.
Out: 0.716

In: Given LTECGYSFTTT [ACTB_Y198_R196C] , respond with its phosphorylation enrichment.
Out: 0.708

In: Given SVTCTYCPALN [TP53_Y126_S127C] , respond with its phosphorylation enrichment.
Out: 0.683

###

target.entity: Fyn (UniProt P06241)
Sequence (P06241 whole entry, looked up): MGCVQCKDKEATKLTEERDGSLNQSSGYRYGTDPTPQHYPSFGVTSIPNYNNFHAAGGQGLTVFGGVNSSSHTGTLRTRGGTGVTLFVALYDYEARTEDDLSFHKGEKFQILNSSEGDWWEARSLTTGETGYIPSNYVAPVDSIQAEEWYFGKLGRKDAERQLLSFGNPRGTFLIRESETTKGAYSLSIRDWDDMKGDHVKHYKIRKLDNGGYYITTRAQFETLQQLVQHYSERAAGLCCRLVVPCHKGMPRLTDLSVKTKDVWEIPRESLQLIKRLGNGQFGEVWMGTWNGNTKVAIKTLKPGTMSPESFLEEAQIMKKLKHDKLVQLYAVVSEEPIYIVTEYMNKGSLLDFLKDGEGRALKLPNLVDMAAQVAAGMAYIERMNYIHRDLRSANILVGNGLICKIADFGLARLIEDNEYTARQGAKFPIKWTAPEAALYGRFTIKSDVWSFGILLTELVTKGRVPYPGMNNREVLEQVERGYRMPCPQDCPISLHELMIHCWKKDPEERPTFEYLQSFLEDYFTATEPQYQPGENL
assay.info: phosphorylation enrichment, bacterial display (enrichment ratio); higher = better substrate or ligand; peptides without Tyr show the background
Hi all, reminder that labels come from phosphorylation enrichment, split as bin 0: < 0.5; bin 1: ≥ 0.5 and < 0.7; bin 2: ≥ 0.7

In: Consider RHFTGYRIELQ [INSR_Y818] . To which phosphorylation enrichment class does it belong?
Out: bin 1

In: Consider TLQNMYGCDVG [HLA-B_Y123_S121N] . To which phosphorylation enrichment class does it belong?
Out: bin 1

In: Consider EMFNPYFGLFE [NEDD4L_Y679_YF] . To which phosphorylation enrichment class does it belong?
Out: bin 2

In: Consider QTENKYDSVSG [EIF2AK3_Y565] . To which phosphorylation enrichment class does it belong?
Out: bin 1

In: Consider RHTRSYDFMEG [FGF7_Y56_YF] . To which phosphorylation enrichment class does it belong?
Out: bin 2

In: Consider LTSKPYAFTAW [NDUFS1_Y236_R241W] . To which phosphorylation enrichment class does it belong?
Out: bin 0

In: Consider TNRSFYFKPSL [NUP153_Y382_V381F] . To which phosphorylation enrichment class does it belong?
Out: bin 0

In: Consider VTAALYGRLFE [BTD_Y536_YF] . To which phosphorylation enrichment class does it belong?
Out: bin 2

In: Consider SVVVPYEPLEV [TP53_Y220_P223L] . To which phosphorylation enrichment class does it belong?
Out: bin 1

In: Consider LITTLYIDFLG [KCNQ1_Y267_G269D] . To which phosphorylation enrichment class does it belong?
Out: bin 2

In: Consider RVNSAYQDKVS [ACAN_Y100] . To which phosphorylation enrichment class does it belong?
Out: bin 1

In: Consider HVIKFYGACSQ [RET_Y791_L790F] . To which phosphorylation enrichment class does it belong?
Out: bin 2

In: Consider TESALYGCTVL [KIAA1804_Y724] . To which phosphorylation enrichment class does it belong?
Out: bin 2

In: Consider SLIDGYYRLTA [JAK2_Y372] . To which phosphorylation enrichment class does it belong?
Out: bin 0

In: Consider CNSFRYGGGGG [NPPA_Y151] . To which phosphorylation enrichment class does it belong?
Out: bin 0

In: Consider ENELTYYCYKK [CD59_Y86_C89Y] . To which phosphorylation enrichment class does it belong?
Out: bin 2

In: Consider PRPAGYPSTVS [CACNA1C_Y1832] . To which phosphorylation enrichment class does it belong?
Out: bin 0

In: Consider PFRQWYESHFA [RPS8_Y113_YF] . To which phosphorylation enrichment class does it belong?
Out: bin 1

In: Consider SPPEVYAIMRG [NTRK1_Y757_C752S] . To which phosphorylation enrichment class does it belong?
Out: bin 2

In: Consider GAVGNYSGGLA [MGMT_Y158] . To which phosphorylation enrichment class does it belong?
Out: bin 0

In: Consider DAANNYARGHF [TUBA3E_Y103_S101N_YF] . To which phosphorylation enrichment class does it belong?
Out: bin 0

In: Consider IRDENYGEGSS [ACO2_Y665_G661R] . To which phosphorylation enrichment class does it belong?
Out: bin 0
